molecular target: F protein mutant RSV-DS-Cav1-A with a DS-Cav1 structure before fusion (respiratory syncytial virus subtype A, …, UniProt P03420 26-513)
Measured pKd values are reported for all entries that follow.
In textbook form, pKd equals minus log to base ten of the concentration in mol/L.

Would you please look over these solved cases?
Binder	Measurement Kind	Reported Measurement
anti-RSV monoclonal antibody Clesrovimab (RB1) (antibody, V domains shown) VH: EVQLVESGGGLVRPGRSLRLSCTVSGFSFDDSAMSWVRQAPGKGLEWISFIKSKTYGGTKEYAASVKGRFTISRDDSKNIAYLQMNSLKTEDTAVYYCTRGAPYGGNSDYYYGLDVWGQGTTVTVSS VL: DIQMTQSPSSLSASVGDRVTITCRTSQDVRGALAWYQQKPGKAPKLLIFDASSLETGVPSRFSGSGSGTVFTLTISSLQPEDFAAYYCQQFLDFPFTFGQGTRLEIK	pKd	7.76
recombinant monoclonal antibody R3B1h1 against F protein of RSV (human IgG1-K version) (antibody, V domains shown) VH: QVQLVQSGAEVKKPGSSVKVSCKASGGLLEDYIINWVRQAPGQGLEWMGGIIPVLGTVHYGPKFQGRVTITADESTSTAYMELSSLRSEDTAVYYCATETAIVVTESYRPHFFDNWGQGTLVTVSS VL: DIQMTQSPSSLSASVGDRVTITCQASQDIVNYLNWYQQKPGKAPKLLIYVASNLETGVPSRFSGSGSGTDFTFTISSLQPEDIATYYCQEFAGLALNFGGGTKVEIKR	pKd	9.21

What pKd value was documented for this binder, anti-RSV monoclonal antibody Nirsevimab (MEDI8897) (antibody, V domains shown) VH: QVQLVQSGAEVKKPGSSVMVSCQASGGLLEDYIINWVRQAPGQGPEWMGGIIPVLGTVHYGPKFQGRVTITADESTDTAYMELSSLRSEDTAMYYCATETALVVSETYLPHYFDNWGQGTLVTVSS VL: DIQMTQSPSSLSAAVGDRVTITCQASQDIVNYLNWYQQKPGKAPKLLIYVASNLETGVPSRFSGSGSGTDFSLTISSLQPEDVATYYCQQYDNLPLTFGGGTKVEIK ? 9.32

Fill in the blank: the reported pKd of recombinant monoclonal antibody R22B1 against F protein of RSV (human IgG1-K version) (antibody, V domains shown) VH: QVQLVQSGAEVKKPGSSVMVSCQASGDPLQNYIINWVRQAPGQGPEWMGAIIPALGSAHYGPKFQGRVTITADESTDTAYMELSSLRSEDTAMYYCATETAVIISESYLPHFFDNWGQGTLVTVSS VL: DIQMTQSPSSLSAAVGDRVTITCQASQDIVNYLNWYQQKPGKAPKLLIYVASNLETGVPSRFSGSGSGTDFSLTISSLQPEDVATYYCQEYDSLALAFGGGTKVEIKR is ____. 9.45
